Test system: VchCAST RNA-guided transposition machinery (E. coli BL21(DE3) host, lacZ target)
Test: relative integration efficiency (T-LR orientation) vs wild-type transposon end (log2 (normalized fold change)); transposon end mutated: right end (5 bp flank + 75 bp right end); higher = more efficient transposition
The entries below are paired with their reported relative integration efficiency (log2).
parameter: relative integration efficiency (log2)

INSERT INTO results (record_sequence, tested_target, measured_result) VALUES
  ('ACATTTGTTGATACAACCATAAAATGATAATTACACCCATAAATGTATAATTATCACACCCATAAATTGATATTGCCTCTGATCATAGTCAGACCAACATTGCTACGACCCGTATTCGCACCGACAC', 'VchCAST RNA-guided transposition machinery (E. coli BL21(DE3) host, lacZ target)', -1.04),
  ('ACATTTGTTGATACAACCATATATTGATATCTCCACCCATAAATTGATATTGCTCACAACCATAAAATGATAATTACTCTGATCATAGTCAGACCAACATTGCTACGACCCGTATTCGCACCGACAC', 'VchCAST RNA-guided transposition machinery (E. coli BL21(DE3) host, lacZ target)', -0.381),
  ('ACATTTGTTGATACAACCATAAAATGATAATTACACCCATAAATACTAAATTATCACACCCATAAATTGATATTGCCTCTGATCATAGTCAGACCAACATTGCTACGACCCGTATTCGCACCGACAC', 'VchCAST RNA-guided transposition machinery (E. coli BL21(DE3) host, lacZ target)', -1.26),
  ('ACATTTCTGGATACAACCATAAAATGATAATTACACCCATAAATGGATCATTATCACACCCAATTTAACTATAACGCTCTGATCATAGTCAGACCAACATTGCTACGACCCGTATTCGCACCGACAC', 'VchCAST RNA-guided transposition machinery (E. coli BL21(DE3) host, lacZ target)', -0.629),
  ('ACATTTGTTGATACAACCATAAAATGATAATTACACCCATAAATTGATAATTATCACACCCATAAATTGATATTGCCTCTGATCATAGTCAGCTGAAGCGAGACACCGACCAACATTGCACCGACAC', 'VchCAST RNA-guided transposition machinery (E. coli BL21(DE3) host, lacZ target)', -0.204),
  ('ACATTTGTCGATACAACCATAAAATGATAATTACACCCATAAATGGATCATTATCACCCCCAATTTAACTATAACGCTCTGATCATAGTCAGACCAACATTGCTACGACCCGTATTCGCACCGACAC', 'VchCAST RNA-guided transposition machinery (E. coli BL21(DE3) host, lacZ target)', 1.19),
  ('ACATTTGTTGATACAACCATAAAATGATAATTAATAATTATTTATAATCAGCAACTCACCCATAAATTGATAATTATCACACCCATAAATTGATATTGCCTCTGATCATAGTCAGACCAACATTGCT', 'VchCAST RNA-guided transposition machinery (E. coli BL21(DE3) host, lacZ target)', -2.22),
  ('ACATTGGTCGATACAACCATAAAATGATAATTACACCCATAAATTCATAATTATCACACCCAATTTAACTATAACGCTCTGATCATAGTCAGACCAACATTGCTACGACCCGTATTCGCACCGACAC', 'VchCAST RNA-guided transposition machinery (E. coli BL21(DE3) host, lacZ target)', -7.44),
  ('ACATTTGTTGATACAACCATAAAGTGATATTTACACCCATAAATTGATAATTATCACAACCATAAGTTGATATTTTCTCTGATCATAGTCAGACCAACATTGCTACGACCCGTATTCGCACCGACAC', 'VchCAST RNA-guided transposition machinery (E. coli BL21(DE3) host, lacZ target)', -0.245),
  ('ACATTTGTTGATACAACCATAAAATGATAATTACTCTGCACCCATAAATTGATAATTATCACACCCATAAATTGATATTGCATCATAGTCAGACCAACATTGCTACGACCCGTATTCGCACCGACAC', 'VchCAST RNA-guided transposition machinery (E. coli BL21(DE3) host, lacZ target)', 0.55),
  ('ACATTTGTTGATACCACCATCAAATGATAATTACACCCCTAAATTGATAATTATCACACCCAATTTAACTATAACGCTCTGATCATAGTCAGACCAACATTGCTACGACCCGTATTCGCACCGACAC', 'VchCAST RNA-guided transposition machinery (E. coli BL21(DE3) host, lacZ target)', -1.78),
  ('ACATTTGTTGATACAACCATAAAGTGATATTTACACCCATAAATTGATATTGCTCACACCCATAAATTGATAATTACTCTGATCATAGTCAGACCAACATTGCTACGACCCGTATTCGCACCGACAC', 'VchCAST RNA-guided transposition machinery (E. coli BL21(DE3) host, lacZ target)', 0.595),
  ('ACTATTGTTGATACAACCATAAAATGATAATTACACCCATAAATTGATAATTATCACACCCATAAATTGATATTGCCTCTGATCATAGTCAGACCAACATTGCTACGACCCGTATTCGCACCGACAC', 'VchCAST RNA-guided transposition machinery (E. coli BL21(DE3) host, lacZ target)', 0.436),
  ('ACATTTGTTGATACAACCATAAAATGATAATTAGTGGGTATTTAACTATTAATTCAGTGGGTATTTAACTATAACGCTCTGATCATAGTCAGACCAACATTGCTACGACCCGTATTCGCACCGACAC', 'VchCAST RNA-guided transposition machinery (E. coli BL21(DE3) host, lacZ target)', 1.17),
  ('ACATTTGTTGATACAACCATAAAATGATAATTACAACCATAAAGTGATATTTATCAGTGGGTATTTAACTATAACGCTCTGATCATAGTCAGACCAACATTGCTACGACCCGTATTCGCACCGACAC', 'VchCAST RNA-guided transposition machinery (E. coli BL21(DE3) host, lacZ target)', 2.5),
  ('ACATTTGTTGATACCACCATCAAATGATAATTCCACCCATAAATTGATAATTATCACACCCAATTTAACTATAACGCTCTGATCATAGTCAGACCAACATTGCTACGACCCGTATTCGCACCGACAC', 'VchCAST RNA-guided transposition machinery (E. coli BL21(DE3) host, lacZ target)', 1.36),
  ('ACATTTGTTGATACAACCATAAAATGATAATTACACCCATAAATTGATTTTTATCACACCCATAAATTGATATTGCCTCTGATCATAGTCAGACCAACATTGCTACGACCCGTATTCGCACCGACAC', 'VchCAST RNA-guided transposition machinery (E. coli BL21(DE3) host, lacZ target)', 0.0005),
  ('ACATTTGTTGATACAACCATAAAATGATAATTACACCCATAAATTGATAATTATCACCCATAAATTGATATTGCCTCTGATCATAGTCAGACCAACATTGCTACGACCCGTATTCGCACCGACACTG', 'VchCAST RNA-guided transposition machinery (E. coli BL21(DE3) host, lacZ target)', 2.21),
  ('ACATAAGTTGATACAACCATAAAATGATAATTACACCCATAAATTGATAATTATCACACCCATAAATTGATATTGCCTCTGATCATAGTCAGACCAACATTGCTACGACCCGTATTCGCACCGACAC', 'VchCAST RNA-guided transposition machinery (E. coli BL21(DE3) host, lacZ target)', -4.25),
  ('ACATTTGTTGATACAACCATAAAATGATAATTACACCCATAAATTGATAATTATCACACCCATAAATTGATATTGCCTCTGATCATAGTCAGACAACCATAAAATGATAATTACCAAGCACCGACAC', 'VchCAST RNA-guided transposition machinery (E. coli BL21(DE3) host, lacZ target)', -0.436);

* * *

Tested on: VchCAST RNA-guided transposition machinery (E. coli BL21(DE3) host, lacZ target)
Assay: relative integration efficiency (T-LR orientation) vs wild-type transposon end (log2 (normalized fold change)); transposon end mutated: right end (5 bp flank + 75 bp right end); higher = more efficient transposition
The entries below are paired with their reported relative integration efficiency (log2).
parameter: relative integration efficiency (log2)

INSERT INTO results (record_sequence, measured_result) VALUES
  ('ACATTTGTTGATACACCCATAAATTGATAATTACAACCATATATTGATATCTCTCACACCCATAAATTGATATTGCCTCTGATCATAGTCAGACCAACATTGCTACGACCCGTATTCGCACCGACAC', -0.339),
  ('ACATTTGTTGATACAACCATAAAATGATAATTACTCTGATCATAGTCAGCACCCATAAATTGATAATTATCAGTGGGTATTTAACTATAACGACCAACATTGCTACGACCCGTATTCGCACCGACAC', 0.537),
  ('AGTAATGTTGATACAACCATAAAATGATAATTACACCCATAAATTGATAATTATCACACCCATAAATTGATATTGCCTCTGATCATAGTCAGACCAACATTGCTACGACCCGTATTCGCACCGACAC', -0.0802),
  ('ACATTTGTGGATACAACCATAAAACGATAATTACACCCATAAATGGATCATTATCACACCCAATTTAACTATAACGCTCTGATCATAGTCAGACCAACATTGCTACGACCCGTATTCGCACCGACAC', 0.737),
  ('ACATTTGTTGATACAACCATAAAATGATAATTACACCCATAAATTCATCATTATCACACCCAATTTAACTATAACGCTCTGATCATAGTCAGACCAACATTGCTACGACCCGTATTCGCACCGACAC', 1.42),
  ('ACATTTGTTGATACAACCATATATTGATATCTCCAACCATAAAGTGATATTTATCAGTGGGTATTTAACTATAACGCTCTGATCATAGTCAGACCAACATTGCTACGACCCGTATTCGCACCGACAC', 2.59),
  ('ACATTTGTTGATACACCCATAAATTGATATTGCCAACCATAAAGTGATATTTATCACACCCATAAATTGATAATTACTCTGATCATAGTCAGACCAACATTGCTACGACCCGTATTCGCACCGACAC', -0.215),
  ('ACATTTGTTGATACAACCATAAAATGATAATTAATAATTATTTATAATCAGCAACTTAACCACCACCCATAAATTGATAATTATCACACCCATAAATTGATATTGCCTCTGATCATAGTCAGACCAA', -0.482),
  ('ACATTTCTTCATACAACCATAAAATGATAATTACACCCATAAATGGATAATTATCACACCCAATTTAACTATAACGCTCTGATCATAGTCAGACCAACATTGCTACGACCCGTATTCGCACCGACAC', -2.86),
  ('ACATTTGTTGATACAACCATAAAATCATAATTACCCCCATCAATTGATAATTATCCCACCCCATTTAACTATAACGCTCTGATCATAGTCAGACCAACATTGCTACGACCCGTATTCGCACCGACAC', -2.4);
